Test system: HL-60(TB) leukemia
Assay procedure: NCI-60 one-dose screen, 48 h (100 = growth as untreated, 0 = no growth, -100 = all killed)
Setup conditions: 10 µM unless noted
Compounds without any hit were thinned out: in the full panel of roughly 83,000, 20% have a hit.
Measurement kind: growth (%)
Give just the number in %; leave the unit off.

### Prompt What does the record list as growth for CC(=O)Nc1cccc(Nc2nc(N[C@H](C)c3ccccc3)c3ccccc3n2)c1 ?
### Response 13.6

### Prompt What does the record list as growth for COc1ccc(/C=N\NC(=O)c2ccc3nc(-c4ccc(Br)cc4)[nH]c3c2)cc1 ?
### Response 84.4

### Prompt What does the record list as growth for c1ccc(C(c2nc3ncncc3[nH]2)N2CSc3nc4ccccc4n3C2)cc1 (stereo not given) ?
### Response 108

### Prompt What does the record list as growth for N#Cc1c(-c2ccc(Cl)cc2)nc(SCc2ccccc2)nc1N1CCNCC1 ?
### Response 1.3

### Prompt What does the record list as growth for O=C(N/N=C/c1cccs1)c1[nH]c2ccc(Br)cc2c1-c1ccccc1 ?
### Response -48.3

### Prompt What does the record list as growth for CN(C)S(=O)(=O)c1oc(-c2ccccc2)nc1C#N ?
### Response 13.8

### Prompt What does the record list as growth for CC1COc2c(N3CCN(C)CC3)c(F)cc3c(=O)c(C(=O)N/N=C/c4cc[nH]c4)cn1c23 (stereo not given) ?
### Response 20.3

### Prompt What does the record list as growth for O=C(N/N=C/c1ccco1)c1[nH]c2ccc(Br)cc2c1-c1ccccc1 ?
### Response -28.4

### Prompt What does the record list as growth for O=C(NNc1nc2cc(F)ccc2n2cncc12)c1cnccn1 ?
### Response 10.8

### Prompt What does the record list as growth for C/C(=C(/c1ccc(O)cc1)c1ccc(OCCN(C)C)cc1)c1ccc(Cl)cc1 ?
### Response 21.8

----------
Consider the following compounds; for each one, report its growth.
Tested on: HL-60(TB) leukemia
Assay procedure: NCI-60 one-dose screen, 48 h (100 = growth as untreated, 0 = no growth, -100 = all killed)
Setup conditions: 10 µM unless noted
This is part of a sample that, as a whole, favours compounds with a hit. Of some 83,000 tested, about 20% had one in any assay.
Give just the number in %; leave the unit off.

### Prompt What does the record list as growth for CCOC(=O)c1ccccc1NC1=C(Cl)C(=O)c2nc(C)ccc2C1=O ?
### Response 70.9

### Prompt What does the record list as growth for CC(C)(C)c1ccc(C(=O)Nc2nc3ccc(O)cc3s2)cc1 ?
### Response 24.8

### Prompt What does the record list as growth for Nc1ccc(-c2nnc(SCc3ccc(O)c4ncccc34)n2-c2ccccc2)cc1 ?
### Response 11.5

### Prompt What does the record list as growth for C[C@@H]1OCC2(CCN(c3cnc(C(=O)Nc4cc(F)cc5cccnc45)cn3)CC2)[C@@H]1N ?
### Response 20.4

### Prompt What does the record list as growth for Cc1ccc(-n2cc(/C=N/NC(=O)c3ccncc3)c(-c3ccc(S(C)(=O)=O)cc3)n2)cc1 ?
### Response 76.4

### Prompt What does the record list as growth for COc1ccc(NC(=O)CSc2nnc(-c3ccc4nc(-c5ccccc5)[nH]c4c3)o2)cc1 ?
### Response 101

### Prompt What does the record list as growth for Cc1ccc(-c2csc(N/N=C/c3nc4ccccc4n3C3CC3)n2)cc1 ?
### Response 7.25

### Prompt What does the record list as growth for Nc1cc(C(=O)N/N=C\c2ccc(OC(F)F)c(OC3CCCC3)c2)nn1CC(O)c1ccccc1 (stereo not given) ?
### Response 91.3

### Prompt What does the record list as growth for Cc1ccc2c(n1)C(=O)C(Cl)=C(Nc1ccc(C)c(C)c1)C2=O ?
### Response 58.4

### Prompt What does the record list as growth for COc1cc(/C=C2\C(=O)Nc3ccccc32)ccc1OCc1ccc(F)cc1 ?
### Response 115

### Prompt What does the record list as growth for COc1ccc(N2C(=O)c3cc(Cl)ccc3NC2SCc2ccccc2)cc1 (stereo not given) ?
### Response 114

### Prompt What does the record list as growth for CN1CCN(Cc2ccc(NC(=O)c3cncc(C#Cc4cnc5ccc(O[C@@H]6CCOC6)nn45)c3)cc2C(F)(F)F)CC1 ?
### Response -48.8

### Prompt What does the record list as growth for O=C(CN1CCN(c2cc(=O)[nH]c3ccc(F)cc23)CC1)Nc1ccc(Cl)cc1 ?
### Response 87.6

### Prompt What does the record list as growth for COc1cc(Cn2cc3c(c2)-c2onc(CN4CCOCC4)c2CC3)cc(OC)c1OC ?
### Response 99.9

### Prompt What does the record list as growth for COc1ccc(-c2cnc(NC(=O)CCCCCCNC(=O)C(O)(O)C(F)(F)F)s2)cc1 ?
### Response 10.5

### Prompt What does the record list as growth for O=C(Cn1cc(-c2ccccc2)nn1)Nc1nc(-c2ccc(Cl)cc2)cs1 ?
### Response 89.7

### Prompt What does the record list as growth for Nc1ncc(-c2ccc3ncnc(N4CCc5cc(F)c(F)cc54)c3c2)cn1 ?
### Response 37.1

### Prompt What does the record list as growth for Cc1nc(-c2cc3ccccc3oc2=O)ccc1C(=O)/C=C/c1ccc(N2CCOCC2)cc1 ?
### Response 38.7

### Prompt What does the record list as growth for Cc1[nH]c(C(=O)Nc2ccccc2OCc2cccc(C(=O)N3CCC[C@@H](N)C3)c2)c(Cl)c1Cl ?
### Response -67.7

### Prompt What does the record list as growth for CC(C)(C)n1nnnc1C(Nc1cccc2c1OCO2)c1cc2cccc3ccc4cccc1c4c32 (stereo not given) ?
### Response 85.2
